Assayed target: HLA-B*18:01
Assay name: IEDB peptide-MHC binding, purified MHC/direct/fluorescence; filed as Kd, often an IC50 or EC50 that approximates it; bounds were set here for any values at or beyond the usual limits of such assays
Run parameters: source organism: Brucella abortus 2308
Metric name: Kd

Problem: I have this sequence here, RVYKNYDPR , and I need its recorded Kd.
Solution: ≥ 20 µM

* * *

Assayed target: HLA-A*02:16
Assay name: IEDB peptide-MHC binding, purified MHC/competitive/fluorescence; filed as Kd, often an IC50 or EC50 that approximates it; bounds were set here for any values at or beyond the usual limits of such assays
Run parameters: source organism: Brucella suis 1330
pKd: −log10 of the molar value.
Metric name: pKd

Problem: Could you share what pKd was measured for TEWPQLKVA , tested on HLA-A*02:16?
Solution: ≤ 4.70

* * *

Assayed target: HLA-B*51:01
Assay name: IEDB peptide-MHC binding, purified MHC/competitive/fluorescence; filed as Kd, often an IC50 or EC50 that approximates it; bounds were set here for any values at or beyond the usual limits of such assays
Run parameters: source organism: Encephalitozoon cuniculi GB-M1
pKd: −log10 of the molar value.
Metric name: pKd

Problem: Could you share what pKd was measured for EAYCALLCK , tested on HLA-B*51:01?
Solution: ≤ 4.70

* * *

Assayed target: HLA-A*02:01
Assay name: IEDB peptide-MHC binding, purified MHC/competitive/fluorescence; filed as Kd, often an IC50 or EC50 that approximates it; bounds were set here for any values at or beyond the usual limits of such assays
Run parameters: source organism: Bacillus anthracis str. A0488
Metric name: Kd (nM)
Numbers only, in nM.

Problem: I have this sequence here, FMSMVSHEL , and I need its recorded Kd.
Solution: 0.5

* * *

Assayed target: HLA-B*48:01
Assay name: IEDB peptide-MHC binding, purified MHC/direct/fluorescence; filed as Kd, often an IC50 or EC50 that approximates it; bounds were set here for any values at or beyond the usual limits of such assays
Run parameters: source organism: Burkholderia mallei
pKd: −log10 of the molar value.
I'd appreciate it if you could supply pKd values for the items below.

Construct sequence: IQRRGAQFQ
Assayed target: HLA-B*48:01
pKd: ≤ 4.70

Attention now turns to another entry.
Problem: I have this sequence here, IYDFYNAEY , and I need its recorded pKd.
Solution: ≤ 4.70

* * *

Assayed target: HLA-A*24:02
Assay name: IEDB peptide-MHC binding, purified MHC/competitive/radioactivity; filed as Kd, often an IC50 or EC50 that approximates it; bounds were set here for any values at or beyond the usual limits of such assays
Run parameters: source organism: Dengue virus 1 Brazil/97-11/1997
Metric name: pKd
Give bare numbers, as −log10 of the molar value.

Construct sequence: DYMTSMKRF
Metric name: pKd
Numeric result: 6.67

Problem: I have this sequence here, SYTQMCDHRL , and I need its recorded pKd.
Solution: 6.74

* * *

Assayed target: HLA-B*08:01
Assay name: IEDB peptide-MHC binding, purified MHC/direct/fluorescence; filed as Kd, often an IC50 or EC50 that approximates it; bounds were set here for any values at or beyond the usual limits of such assays
Run parameters: source organism: Influenza A virus (A/Taiwan/2/2006(H1N1))
Metric name: Kd

Problem: I have this sequence here, CFMYSDFHF , and I need its recorded Kd.
Solution: ≥ 20 µM
